- experimental.target: T1, human ARG1 (Homo sapiens, UniProt P05089)
- T1 construct: Avi tag (N); His10 (after a GGG linker) (C); made in house; host or cells: E. coli BL21 (DE3)
- T1 sequence (P05089 with tags, fused parts or gaps): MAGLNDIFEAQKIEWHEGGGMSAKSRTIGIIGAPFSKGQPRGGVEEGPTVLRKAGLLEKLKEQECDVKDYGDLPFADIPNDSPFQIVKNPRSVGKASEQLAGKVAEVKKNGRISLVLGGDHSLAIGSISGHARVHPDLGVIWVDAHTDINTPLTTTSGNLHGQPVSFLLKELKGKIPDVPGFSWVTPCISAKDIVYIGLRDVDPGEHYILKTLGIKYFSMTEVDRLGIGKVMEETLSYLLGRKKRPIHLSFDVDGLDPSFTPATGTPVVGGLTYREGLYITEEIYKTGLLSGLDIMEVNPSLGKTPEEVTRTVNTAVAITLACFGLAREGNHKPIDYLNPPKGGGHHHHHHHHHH
- test.method.notes: Bio-Layer Interferometry (OctetRED) binding, human ARG1
- test.conditions: Fab analyte up to 120 nM, screening assay on anti-His surface

molecule	Results, binding to human ARG1 (BLI)
C0021133: anti-ARG2 antibody, VH SEQ ID NO: 192, VL SEQ ID NO: 197 (antibody, listed as Homo sapiens, V domains shown, C0021133) VH: EVQLLESGGGLVQPGGSLRLSCAASGFTFRYDHHVWVRQAPGKGLEWVSAISGSGGSTYYADSVKGRFTISRDNSKNTLYLQMNSLRAEDTAVYYCARLRADLGLYMDLWGRGTLVTVSS VL: QSVLTQPPSVSAAPGQKVTVSCSGSSSNIGNHYVSWYQQLPGTAPKLLIYDTTVLSSGIPDRFSGSKSGTSATLGITGLQTGDEADYYCGTWDELTSNLVFGGGTKLTVL	No binding observed
C0021158 IgG: anti-ARG2 antibody, VH SEQ ID NO: 282, VL SEQ ID NO: 287; IgG and Fab versions carry these sequences (antibody, listed as Homo sapiens, V domains shown, C0021158 IgG) VH: EVQLLESGGGLVQPGGSLRLSCAASGFTFRYEVAAWVRQAPGKGLEWVSAISGPIPKGYYADSVKGRFTISRDNSKNTLYLQMNSLRAEDTAVYYCARLRADLGLYMDLWGRGTLVTVSS VL: QSVLTQPPSVSAAPGQKVTISCSGSSSNIGNHYVSWYQQLPGTAPKLLIYDNSERTAGVPDRFSGSKSGTSATLGITGLQTGDEADYYCGTWDELTSNLVFGGGTKLTVL	No binding observed
C0021180: anti-ARG2 antibody, VH SEQ ID NO: 332, VL SEQ ID NO: 337 (antibody, listed as Homo sapiens, V domains shown, C0021180) VH: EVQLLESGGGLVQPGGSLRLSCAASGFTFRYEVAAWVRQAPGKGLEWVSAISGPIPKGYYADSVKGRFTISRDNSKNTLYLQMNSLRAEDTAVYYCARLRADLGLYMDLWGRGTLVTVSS VL: QSVLTQPPTVSAAPGRKVTISCSGSSSNIGDHHVSWYQQLPGAAPKLLIYDTDHMASGIPDRFSGSRSGTSATLGITGLQTGDEADYYCGTWDSSLSALVFGGGTKLTVL	No binding observed

Hello, the source for this data is patent US20220403048A1, in case you need it.
